FYI, the data here is from patent EP4806891A1.

// reported pIC50 per item
- tgt: HEK-Blue-hTLR7 cells (Homo sapiens, UniProt Q9NYK1)
- Sequence (Q9NYK1 27-1049): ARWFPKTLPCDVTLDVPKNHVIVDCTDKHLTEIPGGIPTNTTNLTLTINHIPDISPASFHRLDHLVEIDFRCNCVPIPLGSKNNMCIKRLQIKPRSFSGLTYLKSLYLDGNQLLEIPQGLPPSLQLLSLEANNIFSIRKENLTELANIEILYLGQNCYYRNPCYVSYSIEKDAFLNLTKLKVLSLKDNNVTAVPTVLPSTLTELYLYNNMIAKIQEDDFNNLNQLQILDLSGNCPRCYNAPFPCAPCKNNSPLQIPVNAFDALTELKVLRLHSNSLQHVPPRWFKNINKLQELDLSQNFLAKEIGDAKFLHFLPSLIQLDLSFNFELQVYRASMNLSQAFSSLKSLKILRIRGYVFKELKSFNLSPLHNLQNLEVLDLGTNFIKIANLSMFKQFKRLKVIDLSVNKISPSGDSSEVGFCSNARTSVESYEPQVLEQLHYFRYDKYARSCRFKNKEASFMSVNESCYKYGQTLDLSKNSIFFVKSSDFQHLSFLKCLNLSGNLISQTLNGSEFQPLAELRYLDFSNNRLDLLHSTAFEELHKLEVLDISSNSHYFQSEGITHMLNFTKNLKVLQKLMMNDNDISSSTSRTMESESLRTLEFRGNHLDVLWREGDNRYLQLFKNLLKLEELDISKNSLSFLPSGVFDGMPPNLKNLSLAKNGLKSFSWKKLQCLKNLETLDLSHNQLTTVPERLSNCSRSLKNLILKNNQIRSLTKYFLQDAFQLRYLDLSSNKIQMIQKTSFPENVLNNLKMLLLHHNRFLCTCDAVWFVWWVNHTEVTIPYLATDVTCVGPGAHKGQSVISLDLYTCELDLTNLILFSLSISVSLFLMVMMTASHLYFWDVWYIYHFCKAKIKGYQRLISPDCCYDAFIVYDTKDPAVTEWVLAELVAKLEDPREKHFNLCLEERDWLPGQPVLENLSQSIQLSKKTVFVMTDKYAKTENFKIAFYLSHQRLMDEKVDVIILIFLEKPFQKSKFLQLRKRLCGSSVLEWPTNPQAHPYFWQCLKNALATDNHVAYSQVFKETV
- assay.info: HEK-Blue-hTLR7 cell inhibition assay
- assay.context: R848 0.8 µM, 16 h, OD 620 nm, read-out: TLR7 IC50
pIC50: −log10 of the molar value.

Record excerpt, results attached:
substance.smiles | pIC50
CN1CC2(CC(c3nnc([C@]45CN(c6ccc(C#N)c7ncccc67)C[C@@]4(C(F)(F)F)C5)o3)C2)C1 | > 7.00
CN1CCC(F)(c2nnc([C@]34CN(c5ccc(C#N)n6nccc56)C[C@@]3(C(F)(F)F)C4)o2)CC1 | > 7.00
CCc1nc2c(C#N)ccc(N3C[C@]4(c5nnc(C6CCN(C)CC6)o5)C[C@]4(C(F)(F)F)C3)c2nc1CC | < 6.00

Let's switch to this molecule now.
QUERY: Return reported pIC50 for target or system HEK-Blue-hTLR7 cells (Homo sapiens, UniProt Q9NYK1), item COc1ccc(N2C[C@]3(c4nnc(C5CCN(C)CC5)o4)C[C@]3(C(F)(F)F)C2)c2cccnc12 .
RESULT: > 7.00
